Tested on: BT-549 breast
Assay: NCI tumour cell line growth inhibition, 48 h; in the data active = GI50 below about 0.43 µM; inactive = the rest
*1 amine or outer side, *2 acyl side, *3 side chain or, on linkers, in order; H or OH if unused. Where a SMILES comes first, the peptide text is derived from it. [ ]: non-standard residue; d: D form. The star is where a group is joined. X11 = C/C=C/CC(C)C(O)[C@H](N[*:1])C(=O)[*:2]; Decanoyl = CCCCCCCCCC(=O)*; Leu(ol) = CC(C)C[C@H](N)CO; Aib = CC(C)(N)C(=O)O
Pick from active, inactive when you respond.

Short answer needed: outcome of this test for "CN1CCN(Cc2ccc(NC(=O)c3cncc(C#Cc4cnc5ccc(N6CCOCC6)nn45)c3)cc2C(F)(F)F)CC1" ?
active

Short answer needed: outcome of this test for C/C=C/CC(C)C(O)[C@H](NC(=O)[C@@H]1CCCN1C(=O)C(C)(C)NC(=O)CCCCCCCCC)C(=O)NC(C)(C)C(=O)N[C@@H](CCC(N)=O)C(=O)N[C@H](CCC(N)=O)C(=O)NC(C)(C)C(=O)NC(C)(C)C(=O)N[C@@H](CCC(N)=O)C(=O)N[C@H](CC(C)C)C(=O)N[C@H](CO)CC(C)C (stereo partly drawn) (Decanoyl-[Aib]P[X11][Aib]Q[dQ][Aib][Aib]Q[dL][Leu(ol)]) ?
inactive

---

Tested on: BT-549 breast
Test: NCI tumour cell line growth inhibition, 48 h; in the data active = GI50 below about 0.43 µM; inactive = the rest
Pick from 1 for active, -1 for inactive when you respond.

Example entries begin here.
Short answer needed: outcome of this test for CCN1C(=O)N(CC)C2SC(N/N=C/c3cccs3)=NC21 (stereo not drawn) ?
1

Short answer needed: outcome of this test for "CN1CCN(Cc2ccc(NC(=O)c3cncc(C#Cc4cnc5ccc(N)nn45)c3)cc2C(F)(F)F)CC1" ?
-1

Now turn to the next compound.
Short answer needed: outcome of this test for CCc1ccc(SC2c3ccc(N(CC)CC)cc3Oc3nc(N)c(C#N)c(N)c32)cc1 (stereo not drawn) ?
-1
